Recorded εmax by entry
Assay: Determination KL-Z and εmax
Format: physicochemical
Settings: 0.1% TFA in TFE (rhodamine 10), 0.1% TFA in ethanol (Si-rhodamine 8)
Property measured: εmax

>>> result("C[Si]1(C)c2cc(N3CCC3)ccc2C2(OC(=O)c3ccccc32)c2ccc(N3CCC3)cc21")
"152,000 M^−1cm^−1"
>>> result("C[Si]1(C)c2cc(N3CC(F)C3)ccc2C2(OC(=O)c3ccccc32)c2ccc(N3CC(F)C3)cc21")
"167,000 M^−1cm^−1"
>>> result("O=C1OC2(c3ccc(N4CCC4)cc3Oc3cc(N4CCC4)ccc32)c2ccccc21")
"134,000 M^−1cm^−1"
>>> result("O=C([O-])c1ccccc1-c1c2cc(F)c(=[N+]3CCC3)cc-2oc2cc(N3CCC3)c(F)cc12")
"129,000 M^−1cm^−1"
>>> result("CN(C)c1ccc2c(c1)[Si](C)(C)c1cc(N(C)C)ccc1C21OC(=O)c2ccccc21")
"141,000 M^−1cm^−1"
>>> result("CC1(C)c2cc(N3CCC3)ccc2C2(OC(=O)c3ccccc32)c2ccc(N3CCC3)cc21")
"121,000 M^−1cm^−1"
>>> result("O=C([O-])c1ccccc1-c1c2cc(F)c(=[N+]3CC(F)(F)C3)cc-2oc2cc(N3CC(F)(F)C3)c(F)cc12")
"118,000 M^−1cm^−1"
>>> result("CC1(C)c2cc(N3CC(F)(F)C3)ccc2C2(OC(=O)c3ccccc32)c2ccc(N3CC(F)(F)C3)cc21")
"156,000 M^−1cm^−1"
>>> result("O=C1OC2(c3ccc(N4CC(F)(F)C4)cc3Oc3cc(N4CC(F)(F)C4)ccc32)c2ccccc21")
"122,000 M^−1cm^−1"
